biological target: Atrial natriuretic peptide receptor 1 (Homo sapiens) (UniProt P16066); experiment: Natriuretic polypeptide receptor (hNpr1) antagonism - Pilot CMLD screen (AID 1347052); conditions: HEK293 hNpr1 GloSensor cGMP luminescence, ANP-stimulated; series mostly up to 9.22 µM;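 also: HEK293 cells with hNpr1 stimulated by hNppA peptide at 0.1 nM; cGMP level read as GloSensor luciferase luminescence after agonist stimulation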
Sequence (P16066 whole entry, looked up): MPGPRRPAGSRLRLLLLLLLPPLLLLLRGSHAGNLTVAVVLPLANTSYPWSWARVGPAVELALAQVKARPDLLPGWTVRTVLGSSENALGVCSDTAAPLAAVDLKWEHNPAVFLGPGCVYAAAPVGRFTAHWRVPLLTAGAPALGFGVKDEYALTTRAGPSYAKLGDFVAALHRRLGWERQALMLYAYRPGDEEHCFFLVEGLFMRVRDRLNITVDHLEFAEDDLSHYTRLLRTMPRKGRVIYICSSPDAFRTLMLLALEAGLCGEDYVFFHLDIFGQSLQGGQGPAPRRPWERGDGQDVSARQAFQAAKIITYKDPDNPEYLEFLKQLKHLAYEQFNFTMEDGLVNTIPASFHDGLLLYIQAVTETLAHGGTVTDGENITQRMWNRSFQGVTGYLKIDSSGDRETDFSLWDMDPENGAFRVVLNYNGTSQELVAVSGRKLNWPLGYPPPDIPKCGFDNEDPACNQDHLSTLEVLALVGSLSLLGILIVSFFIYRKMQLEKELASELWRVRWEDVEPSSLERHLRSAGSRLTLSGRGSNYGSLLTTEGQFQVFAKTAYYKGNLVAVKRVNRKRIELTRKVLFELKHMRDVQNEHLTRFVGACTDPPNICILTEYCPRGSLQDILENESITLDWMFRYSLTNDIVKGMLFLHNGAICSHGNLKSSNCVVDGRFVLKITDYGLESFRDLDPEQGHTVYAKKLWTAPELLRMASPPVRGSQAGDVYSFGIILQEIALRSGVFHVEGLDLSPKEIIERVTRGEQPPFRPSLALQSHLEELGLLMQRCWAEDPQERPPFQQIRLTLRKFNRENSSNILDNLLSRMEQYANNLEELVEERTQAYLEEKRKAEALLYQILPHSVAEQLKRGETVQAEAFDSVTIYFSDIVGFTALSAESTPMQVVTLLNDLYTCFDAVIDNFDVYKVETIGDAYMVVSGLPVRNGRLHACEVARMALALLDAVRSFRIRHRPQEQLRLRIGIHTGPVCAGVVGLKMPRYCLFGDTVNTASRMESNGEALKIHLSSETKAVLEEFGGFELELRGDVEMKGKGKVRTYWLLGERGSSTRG
Records with an inconclusive call do not appear. Active and inactive are the calls of the source. Calls follow the shape of the full dose curve.
quantity.name: outcome

// below: answered compounds
• O=C1CCCC(C(C(=O)OCc2ccccc2)C(=O)OCc2ccccc2)C1 (centres undefined) = inactive
• COc1ccc(-c2nc(-c3ccccc3)c(NCc3ccccc3)o2)cc1 = inactive
• COc1ccc(C=CN(CCc2ccc(OC)c(OC)c2)C(=O)c2ccccn2)cc1 = inactive
• CC(Nc1oc(-c2ccccc2)nc1C(C)(C)C)c1ccccc1 (centres undefined) = inactive
• CC(=O)OC[C@H]1O[C@H](CCON=C(C)CCN2CCCc3nc(C)c(C)cc32)C=C[C@H]1OC(C)=O = inactive
• CC(=O)OC[C@H]1O[C@H](C#CCCCc2ccccc2)C=C[C@H]1OC(C)=O = inactive
• CCCCn1c(C)cc2c(c1=O)[C@H]1O[C@](c3ccsc3)(Cc3cc(OC)c(OC)cc31)O2 = inactive
• COc1cccc([C@@H]2Oc3ccc(OC)cc3[C@H](O)[C@@H]2O)c1 = inactive

Challenge: Give its outcome value. Item: CCCCC1=CC2=C(c3ccco3)C(=O)C(C)(OC(=O)c3ccc(OC)cc3)C(=O)C2=CN1Cc1ccco1 (centres undefined)
Response given: inactive
